Target: KRas G12D mutant protein (Homo sapiens (Human), UniProt P01116, G12D)
Sequence (P01116-2 other isoform, or with tags, fused parts or gaps G12D): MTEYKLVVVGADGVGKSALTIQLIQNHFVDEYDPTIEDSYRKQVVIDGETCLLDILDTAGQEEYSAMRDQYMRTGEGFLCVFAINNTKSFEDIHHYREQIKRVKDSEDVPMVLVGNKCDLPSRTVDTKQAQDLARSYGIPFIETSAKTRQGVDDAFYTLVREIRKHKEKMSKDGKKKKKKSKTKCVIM
Test: Ras GTP binding domain inhibition assay (labeled GTP)
Conditions: 20 μM compound
Give measured inhibition at 20 µM for each item. Keep answers brief.

The compound listed as COCCNc1nc(-c2nccn2C)nc2sc(-c3ccccc3)c(-c3cccnc3)c12 shows inhibition at 20 µM equal to 25 to 50%

Sure, the documented inhibition at 20 µM for COCCNc1nc(-c2nccn2C)nc2sc(-c3ccccc3)c(-c3ccccc3)c12 is 0%

Lab note: measured inhibition at 20 µM of CCC(C)c1csc2c(O)nc(-c3ccccn3)nc12 (stereo not shown) [drawing 3492] was 25 to 50%

What the record says about OC[C@H]1O[C@@H](c2csc3c2N=C(c2ccccn2)NC3O)[C@H](O)[C@@H]1O (stereo partly shown) : inhibition at 20 µM is 25 to 50%

###

Target: KRas G12C/Q61H double mutant (Homo sapiens (Human), UniProt P01116, G12C/Q61H)
Sequence (P01116-2 other isoform, or with tags, fused parts or gaps G12C/Q61H): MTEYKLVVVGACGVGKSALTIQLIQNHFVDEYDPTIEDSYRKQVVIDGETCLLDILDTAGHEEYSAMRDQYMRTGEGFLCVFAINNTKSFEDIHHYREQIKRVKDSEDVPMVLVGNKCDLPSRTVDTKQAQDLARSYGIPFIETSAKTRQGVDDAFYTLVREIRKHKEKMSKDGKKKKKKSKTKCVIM
Test: Ras GTP binding domain inhibition assay (labeled GTP)
Details: 20 μM compound
Property measured: inhibition at 20 µM

The recorded inhibition at 20 µM with KRas G12C/Q61H double mutant (Homo sapiens (Human), UniProt P01116, G12C/Q61H) for COc1cnc(CNC(=O)c2csc3nc(-c4ccccn4)nc(N)c23)[nH]c1=O was 25 to 50%

Bench note, KRas G12C/Q61H double mutant (Homo sapiens (Human), UniProt P01116, G12C/Q61H): entry OC[C@H]1O[C@@H](c2csc3c2N=C(c2ccccn2)NC3O)[C@H](O)[C@@H]1O (some centres unmarked) , its inhibition at 20 µM = 25 to 50%

Value (inhibition at 20 µM, KRas G12C/Q61H double mutant (Homo sapiens (Human), UniProt P01116, G12C/Q61H)) for record Cn1cnc(-c2nc(O)c3c(C4C=CC=CC4)c(-c4ccncc4)sc3n2)c1 (centres unmarked) = 1 to 25%

Summary: COc1nc(-c2ccccn2)nc2c(C)c(C(=O)N3CCN(c4ccccc4)CC3)sc12 , KRas G12C/Q61H double mutant (Homo sapiens (Human), UniProt P01116, G12C/Q61H), inhibition at 20 µM = 51 to 75%

Sample CCC(C)c1csc2c(O)nc(-c3ccccn3)nc12 (centres unmarked) [drawing 3492] , system: KRas G12C/Q61H double mutant (Homo sapiens (Human), UniProt P01116, G12C/Q61H). Its inhibition at 20 µM is 51 to 75%

###

Target: KRas Q61H mutant (Homo sapiens (Human), UniProt P01116, Q61H)
Sequence (P01116-2 other isoform, or with tags, fused parts or gaps Q61H): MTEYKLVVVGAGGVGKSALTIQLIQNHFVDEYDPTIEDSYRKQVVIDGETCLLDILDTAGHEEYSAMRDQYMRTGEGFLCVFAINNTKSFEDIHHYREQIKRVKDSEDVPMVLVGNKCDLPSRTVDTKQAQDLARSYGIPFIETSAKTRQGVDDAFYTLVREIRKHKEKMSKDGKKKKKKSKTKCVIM
Test: Ras GTP binding domain inhibition assay (labeled GTP)
Conditions: 20 μM compound
Would you mind telling me the reported inhibition at 20 µM of each entry?

Please fill in: inhibition at 20 µM reported for COc1nc(-c2ccccn2)nc2c(C)c(C(=O)N3CCN(c4ccccc4)CC3)sc12 = 51 to 75%

Noted for COc1cnc(CNC(=O)c2csc3nc(-c4ccccn4)nc(N)c23)[nH]c1=O : its inhibition at 20 µM reads 25 to 50%

Per the records, this compound ( CCC(C)c1csc2c(O)nc(-c3ccccn3)nc12 (centres unmarked) [drawing 3492] ) has inhibition at 20 µM equal to 51 to 75%

Record summary for OC[C@H]1O[C@@H](c2csc3c2N=C(c2ccccn2)NC3O)[C@H](O)[C@@H]1O (some centres unmarked) : reported inhibition at 20 µM = 51 to 75%

The compound Cn1cnc(-c2nc(O)c3c(C4C=CC=CC4)c(-c4ccncc4)sc3n2)c1 (centres unmarked) showed inhibition at 20 µM equal to 1 to 25%

Hello, the source for this data is patent US11000515B2, in case you need it.
